molecular target: Bacterial 70S ribosome; test: Binding affinity to Escherichia coli ribosomes assessed as apparent dissociation constant by scintillation counter analysis; conditions: read-out: Kd(app)
Quantity Kind: Kd (nM)
Respond numerically; units are nM and should not be typed.

[Q] Input "CS[C@H]1O[C@H]([C@H](NC(=O)[C@H]2NC[C@@H]3C[C@H](CC(C)C)CCO[C@H]32)[C@H](C)Cl)[C@H](O)[C@H](O)[C@H]1O" , output reported Kd.
[A] 34

###

biological target: Bacterial 70S ribosome; assay: Binding affinity to Escherichia coli ribosomes assessed as apparent inhibition constant by scintillation counter analysis; settings: read-out: Ki(app)
Items are presented alongside their recorded pKi.
Entry type: numeric. Quantity: pKi, the -log10 of concentration in molar units.

CCC[C@@H]1C[C@@H](C(=O)N[C@@H]([C@H]2O[C@H](SC)[C@H](O)[C@@H](O)[C@H]2O)[C@H](C)Cl)N(C)C1 [CLINDAMYCIN]
5.57

With those in mind, consider the next molecule.
[Q] GET pKi where system = Bacterial 70S ribosome and item = "CS[C@H]1O[C@H]([C@H](NC(=O)[C@H]2NC[C@@H]3C[C@H](CC(C)C)CCO[C@H]32)[C@H](C)Cl)[C@H](O)[C@H](O)[C@H]1O"
[A] 7.39
